Overview of reported cytotoxicity at 70.5 h across a group of compounds:
Test: Human HepG2 cell viability assay in 384 well format
Type: toxicity, cell-based
Parameters: dose 125 nL, time 70.5 hour; concentration not given beside the values
Settings: HepG2 cells, read-out: Inhibition
Use % as the unit, but write only the number.

Past entries and their recorded results:
O=C(CNC(=O)Nc1c(F)cc(F)cc1-c1ccccc1)NC1CC1: -10.3
CCC[C@H]1CN(CCS(C)(=O)=O)C[C@@H]1NC(=O)c1cc[nH]n1: -16

Problem: Assign cytotoxicity at 70.5 h to the following record: COc1ccc(CN2CCC3(CC2)NC(=O)CC3c2ccncc2)cc1 (stereo not drawn)
Result: -7.29

Problem: Assign cytotoxicity at 70.5 h to the following record: Cc1cnn(CC2CCCCN2C(=O)Cc2csc(C)n2)c1 (stereo not drawn)
Result: -7.78

Problem: Assign cytotoxicity at 70.5 h to the following record: CCC(CN1CCCC1)NC(=O)C1(c2ccc(F)cc2)CC1 (stereo not drawn)
Result: -7.41

Problem: Assign cytotoxicity at 70.5 h to the following record: `CC(=O)Nc1nc(-c2ccc(F)cc2)c[nH]1`
Result: 36.5

Problem: Assign cytotoxicity at 70.5 h to the following record: `Fc1ccc(N2CCN(CCCc3cn[nH]c3)CC2)cc1`
Result: 12

Problem: Assign cytotoxicity at 70.5 h to the following record: `COc1ccccc1Nc1nc2c(s1)C(=O)CN(C(=O)CC(C)C)C2`
Result: 2.87

Problem: Assign cytotoxicity at 70.5 h to the following record: CC1CN(S(=O)(=O)c2ccc(F)cc2F)c2cccnc2O1 (stereo not drawn)
Result: -6.28

* * *

Experiment: Human HepG2 cell viability assay in 384 well format
Format: toxicity, cell-based
Design: dose 125 nL, time 70.5 hour; concentration not given beside the values
Settings: HepG2 cells, read-out: Inhibition
measured endpoint: cytotoxicity at 70.5 h (%)
Use % as the unit, but write only the number.

Past entries and their recorded results:
Cc1cc(C(=O)N2CCCN(Cc3nccn3C)CC2)no1: 12.6
O=C1CCCN1Cc1ncn2c1CN(Cc1cccs1)CCC2: -1.34
Cc1cc(N2CCC(CO)(CC3CCCCO3)CC2)c2ccccc2n1 (centres undefined): 2.86
CC(C)c1n[nH]c(C2CN(C(=O)c3cc(C4CC4)[nH]n3)CCO2)n1 (centres undefined): -10.5
c1cc(CN2CCC(c3nnc4n3CCCCC4)CC2)c2c(c1)OCO2: -5.9

Kindly review the next molecule as well.
Problem: Assign cytotoxicity at 70.5 h to the following record: CCn1cc2c(n1)C(COC)CN(C(=O)COc1ccccc1)C2 (centres undefined)
Result: 6.15

* * *

Overview of reported cytotoxicity at 70.5 h across a group of compounds:
Assay: Human HepG2 cell viability assay in 384 well format
Type: toxicity, cell-based
Design: dose 125 nL, time 70.5 hour; concentration not given beside the values
Settings: HepG2 cells, read-out: Inhibition
Use % as the unit, but write only the number.

Past entries and their recorded results:
N#Cc1cccc(N2CC3(CCN(C(=O)C4CC=CC4)C3)CC2=O)c1 (stereo not drawn): -9.81
Cc1noc(Cl)c1CCC(=O)N1CCC(Nc2cccnn2)CC1: -0.162
O=C1NCC2(CCCN(Cc3ccccc3F)C2)Oc2ccccc21 (stereo not drawn): -14.5
O=C(NCc1nncn1C1CC1)C1(c2ccccc2)CCOCC1: -6.33
COc1ccc(-c2cc(=O)n3c(n2)CCCCC3)cc1: -10.4

Problem: Assign cytotoxicity at 70.5 h to the following record: CC(O)CN(C(=O)NC1CCN(CC2CCCCC2)CC1)C(C)C (stereo not drawn)
Result: 1.48

Problem: Assign cytotoxicity at 70.5 h to the following record: `O=C(NC1CCC1)[C@@H]1CCO[C@@H]2CCN(CCc3ccccc3)C[C@H]21`
Result: -3.26

Problem: Assign cytotoxicity at 70.5 h to the following record: Cc1cc(CCC2CN(Cc3ccccc3C(=O)O)CCO2)ncn1 (stereo not drawn)
Result: -3.08

Problem: Assign cytotoxicity at 70.5 h to the following record: COc1ccc(CN2CCCCC2c2n[nH]cc2-c2cc(C)no2)cc1 (stereo not drawn)
Result: 11

Problem: Assign cytotoxicity at 70.5 h to the following record: `COCCN(C)C[C@@H]1CN(C(=O)c2ccc(C)cc2)C[C@@H]1CO`
Result: -9.29

Problem: Assign cytotoxicity at 70.5 h to the following record: O=C1NCc2ccccc2CC12CCN(Cc1c(F)cccc1Cl)C2 (stereo not drawn)
Result: -5.69

Problem: Assign cytotoxicity at 70.5 h to the following record: `CC(C)c1cc(C(=O)N2CCN(Cc3ccsc3)CC2)n[nH]1`
Result: -9.01

Problem: Assign cytotoxicity at 70.5 h to the following record: `Cc1ccc(S(=O)(=O)NC(=O)CCC(F)(F)F)cc1N(C)C`
Result: -1.96

Problem: Assign cytotoxicity at 70.5 h to the following record: CN(C)C(=O)N1CCOCC2(CCN(c3ccccn3)C2)C1 (stereo not drawn)
Result: -5.46

Problem: Assign cytotoxicity at 70.5 h to the following record: CC(C)c1cnc(CN2C(=O)CC3(CCSC3)C2=O)o1 (stereo not drawn)
Result: -3.08

Problem: Assign cytotoxicity at 70.5 h to the following record: O=C(c1cc(-c2ccc(O)cc2)n[nH]1)N1CCCC1c1cccnc1 (stereo not drawn)
Result: 0.428

Problem: Assign cytotoxicity at 70.5 h to the following record: Cc1cc(C(=O)N2CCCC(c3ccc(C(=O)O)cc3)C2)c(C)o1 (stereo not drawn)
Result: -17.2

Problem: Assign cytotoxicity at 70.5 h to the following record: COCC(C)NC(=O)c1nnn(-c2ccc(F)cc2)n1 (stereo not drawn)
Result: -5.45

Problem: Assign cytotoxicity at 70.5 h to the following record: COCCc1noc(CNC(=O)C2CC(=O)N(C(C)(C)C)C2)n1 (stereo not drawn)
Result: -7.37

* * *

Assay: Human HepG2 cell viability assay in 384 well format
Type: toxicity, cell-based
Design: dose 125 nL, time 70.5 hour; concentration not given beside the values
Conditions: HepG2 cells, read-out: Inhibition
measured endpoint: cytotoxicity at 70.5 h

Past entries and their recorded results:
O=C1CC2(CCN(S(=O)(=O)C3CC3)C2)CN1c1cncnc1 (centres undefined): 4.54%
Cc1cc(C)c2c(N3CCC(O)(Cn4ccnc4)CC3)ncnc2n1: -0.18%
COc1ccc(CNCC(C)Oc2ccccn2)cc1 (centres undefined): -18.6%

Problem: Assign cytotoxicity at 70.5 h to the following record: NC(=O)C1(Cc2ccc(-c3ccccc3)cc2)CCCNC1 (centres undefined)
Result: -1.37%

Problem: Assign cytotoxicity at 70.5 h to the following record: Cc1nc(N(C)C)ncc1C(=O)N(Cc1ccncc1)CC1CCCO1 (centres undefined)
Result: -4.9%

Problem: Assign cytotoxicity at 70.5 h to the following record: `O=C(Cc1cccc(F)c1)NCCNc1ncccn1`
Result: -4.32%

* * *

Assay: Human HepG2 cell viability assay in 384 well format
Type: toxicity, cell-based
Set-up: dose 125 nL, time 70.5 hour; concentration not given beside the values
Details: HepG2 cells, read-out: Inhibition
measured endpoint: cytotoxicity at 70.5 h

Past entries and their recorded results:
Cc1cc(CN2CCC(CNC(=O)c3cnc(C)nc3C)C2)[nH]n1 (stereo unspecified): 7.59%
Cc1nc(C2CCCN2Cc2cc(Cl)c3c(c2)OCCO3)no1 (stereo unspecified): 16.9%

Problem: Assign cytotoxicity at 70.5 h to the following record: O=C(C(O)c1ccccc1Cl)N1CCCN(Cc2cccnc2)CC1 (stereo unspecified)
Result: -4.87%

Problem: Assign cytotoxicity at 70.5 h to the following record: `COCCN1CC[C@@H]2O[C@@H](COCC(=O)N3CCCC3)CC[C@@H]21`
Result: -3.26%

Problem: Assign cytotoxicity at 70.5 h to the following record: Cn1ccnc1CN1CCC2(CC1)CC(Nc1ccccn1)CO2 (stereo unspecified)
Result: -2.46%

Problem: Assign cytotoxicity at 70.5 h to the following record: `CCc1noc(CN2CCN(C(=O)c3ccccc3F)CC2)n1`
Result: 29.8%

* * *

Assay: Human HepG2 cell viability assay in 384 well format
Assay type: toxicity, cell-based
Design: dose 125 nL, time 70.5 hour; concentration not given beside the values
Details: HepG2 cells, read-out: Inhibition
measured endpoint: cytotoxicity at 70.5 h (%)
Use % as the unit, but write only the number.

Past entries and their recorded results:
Cn1cnnc1CCNC(=O)c1ccccc1OC1CCC1: 7.31
Cc1ccc(CC(=O)N2CCOC(c3nc(C)n[nH]3)C2)cn1 (configuration not stated): -4.16
O=C(CN1CCOc2ccc(Cl)cc21)NCCCn1cccn1: 9.56

Problem: Assign cytotoxicity at 70.5 h to the following record: CCOCc1cnc2n1CCN(C(=O)Cc1cccs1)C2C (configuration not stated)
Result: -7.5

Problem: Assign cytotoxicity at 70.5 h to the following record: `CN1CCC2(CC1)C(=O)N(c1cccnc1)c1ccc(F)cc12`
Result: -0.57

Problem: Assign cytotoxicity at 70.5 h to the following record: CCN1CC2(CC1=O)CN(C(=O)C(C)C)CCN(S(=O)(=O)CC)C2 (configuration not stated)
Result: -4.9

Problem: Assign cytotoxicity at 70.5 h to the following record: `N#Cc1ccc(N2CCCN(c3nccs3)CC2)nc1`
Result: 1.75

Problem: Assign cytotoxicity at 70.5 h to the following record: Cc1ccc(CN2CCCC3(CCCN3S(C)(=O)=O)C2)s1 (configuration not stated)
Result: -8

Problem: Assign cytotoxicity at 70.5 h to the following record: `COCCCN1Cc2cccc(NC(=O)c3ccccc3Cl)c2C1`
Result: 12.9

Problem: Assign cytotoxicity at 70.5 h to the following record: `CCn1ccc(NC(=O)CCc2c(C)noc2C)n1`
Result: -7.45

Problem: Assign cytotoxicity at 70.5 h to the following record: `O=C(CCc1cc2n(n1)CCCN(C(=O)c1cccnc1)C2)NC1CC1`
Result: -2.07

Problem: Assign cytotoxicity at 70.5 h to the following record: COCC(=O)NC(c1ccccc1)c1ccc2c(c1)CCCO2 (configuration not stated)
Result: -16.4

Problem: Assign cytotoxicity at 70.5 h to the following record: Cc1cnc2c(C(=O)N3CCCC(OCc4ccccn4)C3)cnn2c1 (configuration not stated)
Result: -7.53

Problem: Assign cytotoxicity at 70.5 h to the following record: CCN1CC2(CCC1=O)CCN(C(=O)C(O)c1cccc(Cl)c1)CC2 (configuration not stated)
Result: -7.18

Problem: Assign cytotoxicity at 70.5 h to the following record: O=C(NC1CCN(C2CC2)CC1)NC1CCOc2ccc(Br)cc21 (configuration not stated)
Result: 5.74

Problem: Assign cytotoxicity at 70.5 h to the following record: `O=C(NCc1nc[nH]n1)c1cc(COc2ccccc2F)[nH]n1`
Result: -3.89

Problem: Assign cytotoxicity at 70.5 h to the following record: Cc1nc(C)n(CC2CCCN(Cc3ncc(C(C)(C)C)o3)C2)n1 (configuration not stated)
Result: 23

Problem: Assign cytotoxicity at 70.5 h to the following record: `O=S(=O)(NCCNc1ccc(-n2cccc2)nn1)c1ccccc1`
Result: -5.01

Problem: Assign cytotoxicity at 70.5 h to the following record: O=C(Nc1cccnc1)C1CCCN(c2cc(-n3cccn3)ncn2)C1 (configuration not stated)
Result: 4.07

Problem: Assign cytotoxicity at 70.5 h to the following record: `COc1cccc2c1ccn2CCC(=O)N1CCC(C(=O)O)CC1`
Result: -5.23

Problem: Assign cytotoxicity at 70.5 h to the following record: `O=C(N1CCCCC1)N1CCN(c2ccc(Cl)nn2)C(=O)C1`
Result: -5.68

Problem: Assign cytotoxicity at 70.5 h to the following record: `CC(C)c1sc(Br)nc1C(=O)NCc1cccnc1`
Result: 23.2

Problem: Assign cytotoxicity at 70.5 h to the following record: `COCCn1ccc2c(cnc3nc(SC)nn32)c1=O`
Result: -4.98

Problem: Assign cytotoxicity at 70.5 h to the following record: `C/C=C(\C)CN1C[C@H](NC(=O)CCOC)[C@@H](c2ccc(C)o2)C1`
Result: -18

Problem: Assign cytotoxicity at 70.5 h to the following record: CCCS(=O)(=O)NC(C)C(=O)NCc1ccnc(N2CCCC2)c1 (configuration not stated)
Result: -3.25

Problem: Assign cytotoxicity at 70.5 h to the following record: `CC(C)NC(=O)[C@H]1C[C@H]2OCC[C@H]2N(Cc2ccc3ccccc3n2)C1`
Result: -0.387

Problem: Assign cytotoxicity at 70.5 h to the following record: `CC(C)c1nn(C)c(N2CCOCC2)c1CNCc1cscn1`
Result: -14.5

Attribution: ChEMBL document CHEMBL3507680
